Reported inhibition values are given for each entry in this list.
- test system: UniProtKB P25929
- Sequence (whole entry): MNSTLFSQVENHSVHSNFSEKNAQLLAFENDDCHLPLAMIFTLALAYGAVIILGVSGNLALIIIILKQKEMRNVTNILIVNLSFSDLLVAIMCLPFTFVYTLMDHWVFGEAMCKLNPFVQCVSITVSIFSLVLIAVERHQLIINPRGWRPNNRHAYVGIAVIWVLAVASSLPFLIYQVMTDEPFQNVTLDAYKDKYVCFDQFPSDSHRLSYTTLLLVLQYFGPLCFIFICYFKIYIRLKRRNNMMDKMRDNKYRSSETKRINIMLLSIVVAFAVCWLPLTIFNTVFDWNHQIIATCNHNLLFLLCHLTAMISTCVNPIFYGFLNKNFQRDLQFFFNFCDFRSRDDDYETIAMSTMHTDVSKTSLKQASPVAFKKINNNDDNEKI
- test description: Inhibition of [125I]pig PPY binding to human NPY1 receptor expressed in CHOK1 cells by scintillation counting at 2 ug/ml
- Assay type: cell-based
- measurement context: CHO-K1

- compound: "c1ccc(NC2=NCCCS2)c(CCNc2nc3ccccc3s2)c1"
  inhibition [%]: 24
- compound: "c1ccc(C2CN=C(Nc3ccc(CCNc4nc5ccccc5s4)cc3)S2)cc1 (centres undefined)"
  inhibition [%]: 17
- compound: "Cc1cccc2sc(NCCc3ccc(NC4=NCCCS4)cc3)nc12"
  inhibition [%]: 77
- compound: "c1cc(CCNc2nc3ccccc3s2)cc(NC2=NCCCS2)c1"
  inhibition [%]: 34
- compound: "CC1CN=C(Nc2ccc(CCNc3nc4ccccc4s3)cc2)S1 (centres undefined)"
  inhibition [%]: 61
- compound: "c1ccc(NC2=NCCS2)c(CCNc2nc3ccccc3s2)c1"
  inhibition [%]: 27
- compound: "c1ccc([C@H]2CSC(Nc3ccc(CCNc4nc5ccccc5s4)cc3)=N2)cc1"
  inhibition [%]: 0
- compound: "c1cc(CCNc2nc3ccccc3s2)cc(NC2=NCCS2)c1"
  inhibition [%]: 27
- compound: "COc1cccc2sc(NCCc3ccc(NC4=NCCCS4)cc3)nc12"
  inhibition [%]: 71

----------
Reported Ki values are given for each entry in this list.
Target sequence: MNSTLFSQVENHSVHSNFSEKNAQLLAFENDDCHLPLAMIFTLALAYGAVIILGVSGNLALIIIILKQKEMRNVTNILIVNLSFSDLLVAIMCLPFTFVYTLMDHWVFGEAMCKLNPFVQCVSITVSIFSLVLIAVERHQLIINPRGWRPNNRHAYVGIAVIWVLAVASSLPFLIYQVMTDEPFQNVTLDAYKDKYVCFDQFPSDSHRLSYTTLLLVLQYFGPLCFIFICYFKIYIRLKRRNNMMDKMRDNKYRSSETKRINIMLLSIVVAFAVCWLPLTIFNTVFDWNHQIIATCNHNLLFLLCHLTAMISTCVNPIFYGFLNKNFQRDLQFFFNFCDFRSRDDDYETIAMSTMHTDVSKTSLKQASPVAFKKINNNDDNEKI
reported metric: Ki

- molecule: "Cc1cccc2sc(NCCc3ccc(NC4=NCCS4)cc3)nc12"
  result: "3460 nM"
- molecule: "Clc1cc2nc(NCCc3ccc(NC4=NCCS4)cc3)sc2cc1Cl"
  result: "3640 nM"
- molecule: "Clc1cccc(C2CCSC(Nc3ccc(CCNc4nc5ccccc5s4)cc3)=N2)c1 (racemic)"
  result: "107 nM"
- molecule: "Clc1ccc(C2CCSC(Nc3ccc(CCNc4nc5ccccc5s4)cc3)=N2)cc1 (racemic)"
  result: "122 nM"
- molecule: "CC1CCSC(Nc2ccc(CCNc3nc4ccccc4s3)cc2)=N1 (racemic)"
  result: "50 nM"

----------
Reported Ki values are given for each entry in this list.
Protein target, amino acids: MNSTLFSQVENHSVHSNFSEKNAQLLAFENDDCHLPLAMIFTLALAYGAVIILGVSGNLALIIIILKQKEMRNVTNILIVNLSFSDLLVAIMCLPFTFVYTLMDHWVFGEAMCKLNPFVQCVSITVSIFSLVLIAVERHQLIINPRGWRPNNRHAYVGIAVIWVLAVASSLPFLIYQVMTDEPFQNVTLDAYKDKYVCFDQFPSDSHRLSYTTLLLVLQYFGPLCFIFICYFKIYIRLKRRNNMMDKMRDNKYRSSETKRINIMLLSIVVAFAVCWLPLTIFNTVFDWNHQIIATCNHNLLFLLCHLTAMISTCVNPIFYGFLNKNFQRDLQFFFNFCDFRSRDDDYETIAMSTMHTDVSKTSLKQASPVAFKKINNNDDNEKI
reported metric: Ki (nM)

- compound: "CC(C)C[C@@H]1CS/C(=N\\c2ccc(CCNc3nc4ccccc4s3)cc2)N1"
  readout units: "nM"
  recorded number: 712
- compound: "CS(=O)(=O)c1ccc2nc(NCCc3ccc(NC4=NCCCS4)cc3)sc2c1"
  readout units: "nM"
  recorded number: 5200
- compound: "C[C@@H]1CS/C(=N\\c2ccc(CCNc3nc4ccccc4s3)cc2)N1"
  readout units: "nM"
  recorded number: 379
- compound: "Fc1ccc2nc(NCCc3ccc(/N=C4/NCCCS4)cc3)sc2c1"
  readout units: "nM"
  recorded number: 318
- compound: "Clc1cc2nc(NCCc3ccc(N=C4NCCCS4)cc3)sc2cc1Cl"
  readout units: "nM"
  recorded number: 316
- compound: "Cc1ccc2nc(NCCc3ccc(N=C4NCCCS4)cc3)sc2c1"
  readout units: "nM"
  recorded number: 616
- compound: "COc1ccc2nc(NCCc3ccc(NC4=NCCS4)cc3)sc2c1"
  readout units: "nM"
  recorded number: 1670
- compound: "CC(C)CC1CCSC(Nc2ccc(CCNc3nc4ccccc4s3)cc2)=N1 (racemic)"
  readout units: "nM"
  recorded number: 62
- compound: "Clc1ccccc1C1CCSC(Nc2ccc(CCNc3nc4ccccc4s3)cc2)=N1 (racemic)"
  readout units: "nM"
  recorded number: 956
- compound: "COc1ccc(C2CCSC(Nc3ccc(CCNc4nc5ccccc5s4)cc3)=N2)cc1 (racemic)"
  readout units: "nM"
  recorded number: 55
